The reader will find reported GI50 values listed item by item below.
- Tested on: 786-0
- test-name: NCI tumour cell line growth inhibition, 48 h
Activity calls are given as the source filed them. Rule as the data show it: active = GI50 up to about 1.1 µM and inactive = higher.

>  <compound>
C=C1C(=O)O[C@H]2C[C@@]3(C)[C@H](O)CCC(=C)[C@@H]3[C@@H](OC(C)=O)[C@H]12

>  <GI50>
5.85 µM (inactive)

$$$$
>  <compound>
CCN1CCC(O)(/C=C/c2ccc(C)cc2)C(C(=O)/C=C/c2ccc(C)cc2)C1 (stereo not given)

>  <GI50>
2.08 µM (inactive)

$$$$
>  <compound>
C=CCC1=C2CCCCC2CCC1=O (stereo not given)

>  <GI50>
> 100 µM (inactive)

$$$$
>  <compound>
CC(C)(C)OC(=O)N1C2CCCC23O[C@@H]1c1cc2c(cc1C3=O)OCO2 (stereo not given in full)

>  <GI50>
34.5 µM (inactive)

$$$$
>  <compound>
Cc1nc(SCC(N)=O)c2sc(=S)n(-c3ccccc3)c2n1

>  <GI50>
> 10 µM (inactive)

$$$$
>  <compound>
N/C(=N\O)N/N=C/c1ccc2c(c1)OCO2

>  <GI50>
12.9 µM (inactive)

$$$$
>  <compound>
CCCCCCCCCCCOCCC1C(C(C)OCCN2CCCC2)OC2OC(C)(C)OC21 (stereo not given)

>  <GI50>
2.62 µM (inactive)

$$$$
>  <compound>
COc1ccc(/C=C/C(=O)c2c(-c3ccccc3)nn(C)c(=O)c2N2CC2C)cc1 (stereo not given)

>  <GI50>
36.4 µM (inactive)

$$$$
>  <compound>
O=C(O)c1ccc(NCc2nc3cc4ccccc4cc3[nH]2)cc1

>  <GI50>
> 100 µM (inactive)

$$$$
>  <compound>
O=C(CC1(O)C(=O)Nc2c(Cl)ccc(Cl)c21)c1ccc2ccccc2c1 (stereo not given)

>  <GI50>
6.25 µM (inactive)

$$$$

Entry source: ChEMBL document CHEMBL1201862
